Recorded protein stability index, one value per entry.
Experiment: protein stability index of a GFP-peptide fusion (yeast GPS) (PSI 1-4); higher = more stable; sorted into four equal gates, so the index is relative within each strain
Settings: san1∆
Keep the answer to the number alone.

As a guide, the following entries are already answered.
1) LAYAVLGIALIALGEDI [RPN1] :: 1.98
2) ANNNGSNLQRAQNVPMN [GAL11] :: 3.17
3) SSNIVNENDSQAIITER [YIL149C/MLP2] :: 2.07

Param item = YEKELMGDELTRSHFNA [RPN6] ; retrieve measured protein stability index. 3.34

Then what about the sequence IRGKILTGTVVSTKMHR [RPS11A] ? 2.79

Another sequence: KSVKFVQGLLQNAAANA [RPL17A] 2.28

Likewise for TKYFEPTSTENNKKVVG [ECM29] ? 2.82
